system: Jurkat; test: Inhibitory concentration of compound against Jurkat-Vec cells; type: functional, cell-based; details: Homo sapiens
Quantity Kind: IC50 (µM)
// units = µM; emit number, no label

The value of IC50 measured for the molecule CCCCCCCCCCCC1=C(O)C(=O)C=C(O)C1=O turned out to be 20
